Reported IC50 values follow for various compounds
Biological target: serotonin transporter (Rattus norvegicus, UniProt P31652)
Construct: Cerebral cortices from male Wistar rats (150-200 g) are homogenized
Sequence (P31652 whole entry): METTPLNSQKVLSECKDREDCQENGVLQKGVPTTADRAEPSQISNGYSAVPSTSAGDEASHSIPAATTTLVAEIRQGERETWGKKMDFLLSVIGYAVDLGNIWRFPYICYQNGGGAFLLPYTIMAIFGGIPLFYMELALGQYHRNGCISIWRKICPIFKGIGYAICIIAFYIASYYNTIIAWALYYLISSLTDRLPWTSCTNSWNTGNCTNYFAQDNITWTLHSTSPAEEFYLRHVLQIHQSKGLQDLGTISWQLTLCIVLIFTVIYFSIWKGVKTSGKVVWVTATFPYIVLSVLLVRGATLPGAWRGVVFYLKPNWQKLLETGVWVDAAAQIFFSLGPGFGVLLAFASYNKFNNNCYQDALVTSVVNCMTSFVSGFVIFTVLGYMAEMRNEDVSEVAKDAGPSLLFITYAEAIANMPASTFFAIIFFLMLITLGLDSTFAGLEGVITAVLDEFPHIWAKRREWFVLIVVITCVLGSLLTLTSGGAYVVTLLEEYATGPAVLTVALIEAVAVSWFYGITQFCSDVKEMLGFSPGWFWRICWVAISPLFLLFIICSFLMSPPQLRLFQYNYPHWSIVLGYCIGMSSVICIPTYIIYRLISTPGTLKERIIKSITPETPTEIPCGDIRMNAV
Test: In vitro inhibition of 3H-5-hydroxytryptamine uptake in cortical synaptosomes
Settings: 1 nM 3H-5-HT, 30 minutes at 37° C
Experimental: In Vitro Inhibition of ^3H-5-Hydroxytyptamine Uptake in Cortical Synaptosomes Serotonin transporters/uptake sites on nerve terminals presumably function to terminate neuronal signaling by removing serotonin from the synaptic cleft. The activity of the serotonin transporter integral protein can be measured in vitro by synaptosomal uptake of ^3H-5-hydroxytryptamine (5-HT, serotonin). […] The amount of radioactivity on the filters is determined by conventional liquid scintillation counting. […]
Write it as a number; the unit nM goes unstated.

compound="CN1C2C=C(C3=Cc4ccccc4S3(=O)=O)CC1CC2 (racemic)" val=660

Next compound, please.
Under serotonin transporter (Rattus norvegicus, UniProt P31652): IC50 value of O=S1(=O)C(C2=CC3CCC(C2)N3)=Cc2ccccc21 (racemic) ?
190
